IC50 values, listed per item
Target: human orexin-1 receptor (Homo sapiens)
Construct: expressed in transfected cells; host or cells: CHO cells (G418 selection)
Sequence (O43613 whole entry): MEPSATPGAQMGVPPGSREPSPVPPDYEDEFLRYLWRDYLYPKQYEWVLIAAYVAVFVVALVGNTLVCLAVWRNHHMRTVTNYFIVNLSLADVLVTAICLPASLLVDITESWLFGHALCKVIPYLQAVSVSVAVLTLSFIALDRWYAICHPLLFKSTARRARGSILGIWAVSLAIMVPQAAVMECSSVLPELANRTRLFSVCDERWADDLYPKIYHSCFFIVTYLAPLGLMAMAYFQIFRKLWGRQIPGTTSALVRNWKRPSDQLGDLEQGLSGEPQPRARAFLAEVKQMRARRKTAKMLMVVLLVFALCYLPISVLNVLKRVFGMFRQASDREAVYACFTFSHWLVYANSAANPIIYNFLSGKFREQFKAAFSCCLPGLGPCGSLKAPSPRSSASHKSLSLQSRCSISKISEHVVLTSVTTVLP
Experiment: FLIPR intracellular calcium assay, orexin receptor antagonistic activity (OX1)
Format: cell-based
Conditions: CHO cells expressing human orexin-1 receptor; agonist 3 nM orexin-A; normalized to on-plate reference; * geomean n = 5, *2 geomean n = 2

Check out these entries, answers already filled in.
1) CCOc1ccccc1C1OCC(=O)N1Cc1ccc(C(F)(F)F)c(F)c1 (stereo not drawn) :: > 10 µM
2) COc1cccc(OC)c1C1OCC(=O)N1Cc1ccccc1OC(F)(F)F (stereo not drawn) :: > 10 µM

Recorded IC50 (molecule CCOc1ccccc1C1OCC(=O)N1Cc1ccc(Cl)c(Cl)c1 (stereo not drawn) ): > 10 µM
